biological target: human TYK2 (JH2domain-pseudokinase) (Homo sapiens (Human)); assay: TYK2 JH2 Domain Binding Assay (KINOMEscan)
Sequence (P29597 556-888): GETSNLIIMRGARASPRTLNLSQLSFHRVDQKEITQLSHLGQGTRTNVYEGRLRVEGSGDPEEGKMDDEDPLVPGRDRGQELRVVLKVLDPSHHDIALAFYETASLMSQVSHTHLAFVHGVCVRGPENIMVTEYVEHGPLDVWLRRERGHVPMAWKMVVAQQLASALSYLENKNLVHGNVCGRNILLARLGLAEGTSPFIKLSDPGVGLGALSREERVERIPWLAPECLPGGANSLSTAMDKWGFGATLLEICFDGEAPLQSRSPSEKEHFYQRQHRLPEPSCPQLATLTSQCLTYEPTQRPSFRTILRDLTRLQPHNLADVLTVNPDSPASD
parameter.measured: Kd

molecule: CNc1cc(Nc2cccn(C3CCCN(CCF)C3)c2=O)nc2c(C(=O)NC3CC3)cnn12 (stereo not shown)
parameter.measured: Kd
assay.value: < 0.2 nM

molecule: CNc1cc(-c2cn(CCN3CCOCC3)c3ncccc23)nc2c(C(N)=O)cnn12
parameter.measured: Kd
assay.value: < 0.2 nM

molecule: CNc1cc(Nc2cccnc2OC2CC2)nc2c(C(=O)N[C@H]3C[C@H]3F)cnn12
parameter.measured: Kd
assay.value: < 0.2 nM

molecule: CNc1cc(Nc2cccn([C@H]3CCCN(C)C3)c2=O)nc2c(C(=O)N[C@@H]3C[C@@H]3F)cnn12
parameter.measured: Kd
assay.value: < 0.2 nM

molecule: CNc1cc(Nc2cccn([C@H]3CCN(CCF)C3)c2=O)nc2c(C(=O)N[C@H]3CC[C@@H]3OC)cnn12 [I-1050]
parameter.measured: Kd
assay.value: < 0.2 nM

molecule: CCO[C@H]1CC[C@@H]1NC(=O)c1cnn2c(NC)cc(Nc3cccn(-c4ccccn4)c3=O)nc12
parameter.measured: Kd
assay.value: < 0.2 nM

molecule: CNc1cc(Nc2cccn([C@H]3CCCOC3)c2=O)nc2c(C(=O)N[C@H]3COC[C@H]3O)cnn12 [I-753]
parameter.measured: Kd
assay.value: 0.2 to 1 nM

molecule: CNc1cc(Nc2cccn([C@H]3CC[C@@H]3O)c2=O)nc2c(C(=O)N[C@@H]3CC[C@H]3OC)cnn12
parameter.measured: Kd
assay.value: 0.2 to 1 nM

molecule: CNc1cc(Nc2cccn(-c3nn(C)cc3C)c2=O)nc2c(C(=O)NC3CC3)cnn12
parameter.measured: Kd
assay.value: 0.2 to 1 nM

molecule: CNc1cc(Nc2cccn([C@@H]3CCCN(C)C3)c2=O)nc2c(C(=O)N[C@@H]3C[C@@H]3F)cnn12
parameter.measured: Kd
assay.value: 0.2 to 1 nM

molecule: CNc1cc(Nc2cccn([C@H]3CC[C@H](OC)CC3)c2=O)nc2c(C(=O)N[C@@H]3COC[C@@H]3O)cnn12
parameter.measured: Kd
assay.value: < 0.2 nM

molecule: CNc1cc(-c2cn(C(C)C)c3ncc(F)cc23)nc2c(C(=O)N[C@H]3CC[C@H]3O)cnn12 [I-1013]
parameter.measured: Kd
assay.value: < 0.2 nM

molecule: Nc1cc(Nc2cccnc2OC(F)(F)F)nc2c(C(=O)NC3CC3)cnn12
parameter.measured: Kd
assay.value: 1 to 10 nM

molecule: CNc1cc(-c2cnn(-c3ccccc3)c2)nc2c(C(N)=O)cnn12
parameter.measured: Kd
assay.value: 0.2 to 1 nM

molecule: COc1ncccc1Nc1cc(NCCN2CCOCC2)n2ncc(C(=O)N[C@@H]3C[C@@H]3F)c2n1 (stereo in doubt)
parameter.measured: Kd
assay.value: 0.2 to 1 nM

molecule: CNc1cc(Nc2cccn([C@H]3CCCOC3)c2=O)nc2c(C(=O)NC3CC3OC)cnn12 (mixture of isomers)
parameter.measured: Kd
assay.value: 0.2 to 1 nM

###

Reported values of pKd for individual entries
target: human TYK2 (JH2domain-pseudokinase) (Homo sapiens (Human)); test: TYK2 JH2 Domain Binding Assay (KINOMEscan)
pKd: −log10 of the molar value.

compound: CNc1cc(Nc2cccn(C3CCN(CCF)CC3)c2=O)nc2c(C(=O)N[C@@H]3CC[C@H]3O)cnn12 [I-845]
pKd: > 9.70
//
compound: CNc1cc(-n2cc(N3CCCC3)c3ncccc32)nc2c(C(=O)NC3CC3)cnn12 [I-552]
pKd: 8.00 to 9.00
//
compound: CNc1cc(-c2nn(C3CCOCC3)c3ncccc23)nc2c(C(=O)N[C@@H]3C[C@@H]3F)cnn12 (stereo in doubt) [I-450]
pKd: 9.00 to 9.70
//
compound: CNc1cc(Nc2cccn([C@@H]3CCCC[C@@H]3OC)c2=O)nc2c(C(=O)NCC(C)(C)CO)cnn12 [I-990]
pKd: 8.00 to 9.00
//
compound: CNc1cc(Nc2cccn(-c3nc(C)co3)c2=O)nc2c(C(=O)NC3CCC3)cnn12 [I-386]
pKd: > 9.70
//
compound: CNc1cc(-c2cn(CCCO)c3ncc(F)cc23)nc2c(C(=O)N[C@H]3CC[C@@H]3OC)cnn12 [I-1298]
pKd: < 8.00
//
compound: CNc1cc(Nc2cccn([C@H]3CC[C@@H]3OC)c2=O)nc2c(C(=O)N[C@@H]3C[C@@H]3F)cnn12 [I-997]
pKd: > 9.70
//
compound: CNc1cc(Nc2cc(F)ccc2F)nc2c(C(=O)NC3CC3)cnn12 [I-3]
pKd: > 9.70
//
compound: CNc1cc(-c2cn(C(C)C)c3ncc(C)cc23)nc2c(C(=O)NC3CCC3)cnn12 [I-256]
pKd: 9.00 to 9.70
//
compound: CNc1cc(Nc2cc(Cl)cn([C@@H]3CCCN(C)C3)c2=O)nc2c(C(=O)NC3CC3)cnn12 [I-819]
pKd: > 9.70
//
compound: CNc1cc(Nc2cccc([C@H]3CCCOC3)n2)nc2c(C(=O)N[C@@H]3COC[C@@H]3O)cnn12 [I-775]
pKd: > 9.70
//
compound: CNc1cc(Nc2cccn(-c3nn(C)cc3F)c2=O)nc2c(C(=O)N[C@@H]3C[C@@H]3F)cnn12 [I-1321]
pKd: > 9.70
//
compound: CNc1cc(Nc2cccn(C3CCCCC3)c2=O)nc2c(C(=O)N[C@@H]3COC[C@@H]3O)cnn12 [I-1348]
pKd: > 9.70
//
compound: CNc1cc(Nc2cccc3ocnc23)nc2c(C(=O)N[C@@H]3CC[C@@H]3O)cnn12 [I-770]
pKd: > 9.70
//
compound: CNc1cc(Nc2cccn([C@H]3CCCOC3)c2=O)nc2c(C(=O)N[C@H]3CCC[C@H](O)C3)cnn12 (stereo in doubt) [I-704]
pKd: 9.00 to 9.70
//
compound: Cc1cc(C)cc(Nc2cc(N)n3ncc(C(N)=O)c3n2)c1 [I-21]
pKd: 9.00 to 9.70
